pEC50 by entry:
# ASSAY TARGET: Estrogen receptor (Homo sapiens, UniProt P03372)
# Sequence (P03372 whole entry): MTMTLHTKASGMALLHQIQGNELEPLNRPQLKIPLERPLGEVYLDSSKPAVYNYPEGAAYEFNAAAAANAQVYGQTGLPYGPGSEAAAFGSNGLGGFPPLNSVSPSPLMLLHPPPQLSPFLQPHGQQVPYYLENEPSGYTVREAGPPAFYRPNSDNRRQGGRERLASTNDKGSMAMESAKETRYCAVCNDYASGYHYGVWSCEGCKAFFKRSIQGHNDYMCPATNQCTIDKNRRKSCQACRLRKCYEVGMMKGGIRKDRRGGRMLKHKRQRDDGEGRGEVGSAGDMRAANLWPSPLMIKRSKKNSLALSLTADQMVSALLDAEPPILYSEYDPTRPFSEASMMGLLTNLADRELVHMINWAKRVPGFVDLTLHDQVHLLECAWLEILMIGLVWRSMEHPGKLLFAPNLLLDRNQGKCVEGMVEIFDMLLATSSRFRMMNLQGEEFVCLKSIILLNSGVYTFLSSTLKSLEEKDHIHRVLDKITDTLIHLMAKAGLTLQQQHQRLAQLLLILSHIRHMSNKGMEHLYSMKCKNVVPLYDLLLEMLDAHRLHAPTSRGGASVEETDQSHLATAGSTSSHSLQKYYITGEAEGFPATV
# ASSAY: Agonist activity at ERalpha (unknown origin) expressed in HEK293T cells assessed as transcriptional activity after 24 hrs by dual luciferase reporter gene assay
pEC50: −log10 of the molar value.

[
  {
    "SMILES CODE": "Cc1cc(-c2c[se]cc2-c2ccc(OCCN3CCCCC3)c(C)c2)ccc1O",
    "pEC50": 6.14
  },
  {
    "SMILES CODE": "Oc1ccc(-c2ccc(-c3ccc(OCCN4CCCC4)cc3F)[se]2)c(F)c1",
    "pEC50": 6.87
  },
  {
    "SMILES CODE": "Oc1ccc(-c2c[se]cc2-c2ccc(OCCN3CCCC3)cc2)cc1",
    "pEC50": 6.00
  },
  {
    "SMILES CODE": "Oc1ccc(-c2ccc(-c3ccc(OCCN4CCCCC4)cc3Cl)[se]2)c(Cl)c1",
    "pEC50": 6.04
  },
  {
    "SMILES CODE": "Cc1cc(O)ccc1-c1c[se]cc1-c1ccc(OCCN2CCCCC2)cc1C",
    "pEC50": 6.80
  }
]

###

# ASSAY TARGET: Estrogen receptor beta (Homo sapiens)
# Sequence (Q92731 whole entry, the tested form may be a part): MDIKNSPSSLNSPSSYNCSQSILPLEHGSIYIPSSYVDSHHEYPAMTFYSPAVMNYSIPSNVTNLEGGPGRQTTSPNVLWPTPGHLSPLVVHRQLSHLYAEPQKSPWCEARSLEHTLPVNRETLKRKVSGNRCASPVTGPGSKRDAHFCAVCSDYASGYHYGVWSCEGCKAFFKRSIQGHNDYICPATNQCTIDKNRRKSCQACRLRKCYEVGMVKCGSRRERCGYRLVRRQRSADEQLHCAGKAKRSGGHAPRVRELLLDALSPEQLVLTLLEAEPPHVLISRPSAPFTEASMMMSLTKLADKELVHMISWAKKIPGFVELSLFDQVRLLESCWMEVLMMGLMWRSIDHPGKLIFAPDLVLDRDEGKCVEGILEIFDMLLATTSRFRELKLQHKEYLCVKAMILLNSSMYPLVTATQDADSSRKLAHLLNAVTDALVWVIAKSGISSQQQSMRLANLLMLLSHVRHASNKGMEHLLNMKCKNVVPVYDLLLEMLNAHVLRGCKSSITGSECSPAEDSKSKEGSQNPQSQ
# ASSAY: Binding affinity to human ERbeta LBD expressed in Escherichia coli BL21(DE3) after 2 hrs by fluorescence tracer coumestrol based competitive fluorometric binding assay relative to 17beta-estradiol
MEASUREMENT KIND: RBA (%)

[
  {
    "SMILES CODE": "Oc1ccc(-c2ccc(-c3ccc(OCCN4CCCC4)cc3Cl)[se]2)c(Cl)c1",
    "RESULT QUALIFIER": "=",
    "REPORTED": 23.6
  },
  {
    "SMILES CODE": "Cc1cc(O)ccc1-c1ccc(-c2ccc(OCCN3CCCCC3)cc2C)[se]1",
    "RESULT QUALIFIER": "=",
    "REPORTED": 0.62
  },
  {
    "SMILES CODE": "Oc1ccc(-c2ccc(-c3ccc(O)cc3)[se]2)cc1",
    "RESULT QUALIFIER": "=",
    "REPORTED": 2.87
  },
  {
    "SMILES CODE": "Oc1ccc(-c2ccc(-c3ccc(OCCN4CCCC4)cc3F)[se]2)c(F)c1",
    "RESULT QUALIFIER": "<",
    "REPORTED": 0.1
  },
  {
    "SMILES CODE": "Oc1ccc(-c2c[se]cc2-c2ccc(O)cc2)cc1",
    "RESULT QUALIFIER": "=",
    "REPORTED": 2.01
  },
  {
    "SMILES CODE": "Oc1ccc(-c2cc(-c3ccc(OCCN4CCCCC4)cc3)c(-c3ccc(O)cc3)[se]2)cc1",
    "RESULT QUALIFIER": "<",
    "REPORTED": 0.1
  },
  {
    "SMILES CODE": "Cc1cc(-c2c[se]cc2-c2ccc(O)c(C)c2)ccc1O",
    "RESULT QUALIFIER": "=",
    "REPORTED": 0.62
  },
  {
    "SMILES CODE": "Oc1ccc(-c2c[se]cc2-c2ccc(OCCN3CCCCC3)c(F)c2)cc1F",
    "RESULT QUALIFIER": "=",
    "REPORTED": 15.3
  },
  {
    "SMILES CODE": "Oc1ccc(-c2ccc(-c3ccc(OCCN4CCCC4)cc3)[se]2)cc1",
    "RESULT QUALIFIER": "=",
    "REPORTED": 1.02
  },
  {
    "SMILES CODE": "Oc1ccc(-c2c[se]cc2-c2ccc(O)c(F)c2)cc1F",
    "RESULT QUALIFIER": "=",
    "REPORTED": 1.56
  },
  {
    "SMILES CODE": "Oc1ccc(-c2ccc(-c3ccc(O)cc3Cl)[se]2)c(Cl)c1",
    "RESULT QUALIFIER": "=",
    "REPORTED": 12.7
  },
  {
    "SMILES CODE": "Cc1cc(O)ccc1-c1cc(-c2ccc(OCCN3CCCC3)cc2)c(-c2ccc(O)cc2C)[se]1",
    "RESULT QUALIFIER": "=",
    "REPORTED": 3.4
  },
  {
    "SMILES CODE": "Oc1ccc(-c2c[se]cc2-c2ccc(OCCN3CCCC3)cc2Cl)c(Cl)c1",
    "RESULT QUALIFIER": "=",
    "REPORTED": 23.3
  },
  {
    "SMILES CODE": "Oc1ccc(-c2c[se]cc2-c2ccc(OCCN3CCCC3)cc2)cc1",
    "RESULT QUALIFIER": "=",
    "REPORTED": 5.92
  },
  {
    "SMILES CODE": "Oc1ccc(-c2ccc(-c3ccc(OCCN4CCCCC4)cc3Cl)[se]2)c(Cl)c1",
    "RESULT QUALIFIER": "<",
    "REPORTED": 0.1
  },
  {
    "SMILES CODE": "Oc1ccc(-c2ccc(-c3ccc(OCCN4CCCCC4)cc3F)[se]2)c(F)c1",
    "RESULT QUALIFIER": "=",
    "REPORTED": 0.63
  },
  {
    "SMILES CODE": "Cc1cc(O)ccc1-c1c[se]cc1-c1ccc(OCCN2CCCC2)cc1C",
    "RESULT QUALIFIER": "=",
    "REPORTED": 0.46
  },
  {
    "SMILES CODE": "Oc1ccc(-c2c[se]cc2-c2ccc(OCCN3CCCCC3)cc2)cc1",
    "RESULT QUALIFIER": "=",
    "REPORTED": 2.35
  },
  {
    "SMILES CODE": "Oc1ccc(-c2ccc(-c3ccc(O)cc3F)[se]2)c(F)c1",
    "RESULT QUALIFIER": "=",
    "REPORTED": 24.3
  },
  {
    "SMILES CODE": "Cc1cc(O)ccc1-c1c[se]cc1-c1ccc(O)cc1C",
    "RESULT QUALIFIER": "=",
    "REPORTED": 6.7
  },
  {
    "SMILES CODE": "Oc1ccc(-c2cc(-c3ccc(OCCN4CCCC4)cc3)c(-c3ccc(O)cc3)[se]2)cc1",
    "RESULT QUALIFIER": "=",
    "REPORTED": 16.7
  },
  {
    "SMILES CODE": "Cc1cc(O)ccc1-c1ccc(-c2ccc(O)cc2C)[se]1",
    "RESULT QUALIFIER": "=",
    "REPORTED": 11.1
  }
]
